- test target: HIV-1 Env of isolate 92TH021 (pseudovirus) (HIV-1)
- method description: cell-based or functional assay
IC50 (µg/mL), pseudovirus neutralization listing for selected binders.
result type: IC50 (µg/mL), pseudovirus neutralization

binder | result type | units symbol | inequality sign | test value
PGT-123 (4858_P08) (antibody, V domains shown) VH: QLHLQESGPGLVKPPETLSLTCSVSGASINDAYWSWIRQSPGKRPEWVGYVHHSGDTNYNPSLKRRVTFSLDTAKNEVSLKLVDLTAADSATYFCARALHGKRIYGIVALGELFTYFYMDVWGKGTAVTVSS VL: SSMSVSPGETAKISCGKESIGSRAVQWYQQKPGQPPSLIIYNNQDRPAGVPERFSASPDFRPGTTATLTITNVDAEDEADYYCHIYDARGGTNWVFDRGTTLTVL | IC50 (µg/mL), pseudovirus neutralization | µg/mL | > | 50
PGT-126 (5141_B17) (antibody, V domains shown) VH: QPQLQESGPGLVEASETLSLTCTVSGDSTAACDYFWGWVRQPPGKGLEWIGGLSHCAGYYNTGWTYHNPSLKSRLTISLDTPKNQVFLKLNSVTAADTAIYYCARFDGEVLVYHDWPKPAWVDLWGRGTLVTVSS VL: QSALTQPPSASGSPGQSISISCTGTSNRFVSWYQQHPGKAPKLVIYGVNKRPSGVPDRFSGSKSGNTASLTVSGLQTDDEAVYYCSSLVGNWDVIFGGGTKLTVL | IC50 (µg/mL), pseudovirus neutralization | µg/mL | = | 0.197
PGT-125 (5123_A06) (antibody, V domains shown) VH: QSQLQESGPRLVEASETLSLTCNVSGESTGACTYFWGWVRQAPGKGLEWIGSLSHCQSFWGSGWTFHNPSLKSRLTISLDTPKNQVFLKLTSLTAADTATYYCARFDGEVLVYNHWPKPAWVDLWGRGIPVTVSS VL: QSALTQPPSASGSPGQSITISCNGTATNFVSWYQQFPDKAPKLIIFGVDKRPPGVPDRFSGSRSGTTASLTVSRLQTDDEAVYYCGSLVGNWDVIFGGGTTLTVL | IC50 (µg/mL), pseudovirus neutralization | µg/mL | = | 0.006
PGT-127 (5145_B14) (antibody, V domains shown) VH: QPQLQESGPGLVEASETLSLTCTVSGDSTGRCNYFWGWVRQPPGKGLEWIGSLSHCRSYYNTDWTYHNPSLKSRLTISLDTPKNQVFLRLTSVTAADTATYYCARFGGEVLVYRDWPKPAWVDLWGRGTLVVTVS VL: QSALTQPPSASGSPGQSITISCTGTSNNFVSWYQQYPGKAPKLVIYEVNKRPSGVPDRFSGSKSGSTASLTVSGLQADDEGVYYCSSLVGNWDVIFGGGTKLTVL | IC50 (µg/mL), pseudovirus neutralization | µg/mL | > | 50
